Data origin, for the record: ChEMBL document CHEMBL4190338

Measured EC50, listed per entry for reference.
System: Trypanosoma brucei brucei
Assay: Antitrypanosomal activity against Trypanosoma brucei brucei BF427 measured after 48 hrs by Alamar blue assay
Type: functional, organism-based
Conditions: BF427, 48 h
MEASURED_PROPERTY: EC50 (nM)

smiles_notation=COc1ccc(N2C(=O)CN(Cc3ccc(F)c(C#N)c3)C2=S)cc1Cl qualifier=> experimental_value=20000
smiles_notation=CN(C)c1ccc(N2C(=O)CN(Cc3ccc(F)cc3[N+](=O)[O-])C2=S)cc1Cl qualifier== experimental_value=19
smiles_notation=COc1ccc(N2C(=O)CN(Cc3ccc(F)cc3F)C2=S)cc1Cl qualifier== experimental_value=63
smiles_notation=COc1ccc(N2C(=O)CN(Cc3ccc(C(F)(F)F)cc3)C2=S)cc1Cl qualifier=> experimental_value=20000
smiles_notation=COc1ccc(N2C(=O)CN(Cc3ccc(F)cc3C(F)(F)F)C2=S)cc1OC qualifier== experimental_value=37

---

Test system: Trypanosoma brucei brucei
Experiment: Antitrypanosomal activity against Trypanosoma brucei brucei BF427 measured after 48 hrs by Alamar blue assay
Format: functional, organism-based
Conditions: BF427, 48 h
MEASURED_PROPERTY: EC50 (nM)

smiles_notation=COc1ccc(N2C(=O)CN(Cc3ccc(F)cc3[N+](=O)[O-])C2=S)cc1OC system_under_test="Trypanosoma brucei brucei" measured_property=EC50 qualifier== experimental_value=555
smiles_notation=CN(C)c1ccc(N2C(=O)CN(Cc3ccc(F)cc3F)C2=S)cc1F system_under_test="Trypanosoma brucei brucei" measured_property=EC50 qualifier== experimental_value=28
smiles_notation=O=C1CN(Cc2ccc(F)cc2)C(=S)N1c1ccc(N2CCCC2)c(Cl)c1 system_under_test="Trypanosoma brucei brucei" measured_property=EC50 qualifier== experimental_value=27
smiles_notation=COc1cc(F)ccc1CN1CC(=O)N(c2ccc(N(C)C)c(Cl)c2)C1=S system_under_test="Trypanosoma brucei brucei" measured_property=EC50 qualifier== experimental_value=11
smiles_notation=COc1ccc(N2C(=O)CN(Cc3ccc(F)c(F)c3)C2=S)cc1Cl system_under_test="Trypanosoma brucei brucei" measured_property=EC50 qualifier== experimental_value=313
smiles_notation=COc1ccc(N2C(=O)CN(Cc3ccc(F)cc3[N+](=O)[O-])C2=S)cc1Cl system_under_test="Trypanosoma brucei brucei" measured_property=EC50 qualifier== experimental_value=350
smiles_notation=CN(C)c1ccc(N2C(=O)CN(Cc3ccccc3)C2=S)cc1Cl system_under_test="Trypanosoma brucei brucei" measured_property=EC50 qualifier== experimental_value=16
smiles_notation=COc1cc(F)ccc1CN1CC(=O)N(c2ccc(OC)c(OC)c2)C1=S system_under_test="Trypanosoma brucei brucei" measured_property=EC50 qualifier== experimental_value=107
smiles_notation=O=C(O)c1ccc(N2C(=O)CN(Cc3ccccc3)C2=S)cc1 system_under_test="Trypanosoma brucei brucei" measured_property=EC50 qualifier=> experimental_value=10000

---

Target: UniProtKB P08684
Sequence (P08684 whole entry): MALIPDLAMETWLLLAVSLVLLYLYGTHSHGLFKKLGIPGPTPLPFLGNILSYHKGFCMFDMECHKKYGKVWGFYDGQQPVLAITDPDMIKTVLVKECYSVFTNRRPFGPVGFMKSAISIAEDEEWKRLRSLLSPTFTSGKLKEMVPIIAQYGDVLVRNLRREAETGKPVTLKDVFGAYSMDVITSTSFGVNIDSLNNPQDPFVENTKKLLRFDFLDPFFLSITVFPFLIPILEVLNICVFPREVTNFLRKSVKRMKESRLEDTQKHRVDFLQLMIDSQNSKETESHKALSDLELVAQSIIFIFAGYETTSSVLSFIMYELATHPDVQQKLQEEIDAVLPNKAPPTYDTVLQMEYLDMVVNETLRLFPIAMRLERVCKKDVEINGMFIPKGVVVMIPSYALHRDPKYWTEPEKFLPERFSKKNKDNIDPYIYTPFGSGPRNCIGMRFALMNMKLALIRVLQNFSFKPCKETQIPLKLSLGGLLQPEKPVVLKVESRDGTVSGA
Test: Inhibition of CYP3A4 (unknown origin)
Type: ADME
pIC50: −log10 of the molar value.
MEASURED_PROPERTY: pIC50

smiles_notation=COc1cc(N2C(=O)CN(Cc3ccc(F)cc3Cl)C2=S)ccc1N(C)C experimental_value=5.11

---

Tested on: Trypanosoma brucei brucei
Test: Antitrypanosomal activity against Trypanosoma brucei brucei BF427 measured after 48 hrs by Alamar blue assay
Type: functional, organism-based
Conditions: BF427, 48 h
pEC50: −log10 of the molar value.
MEASURED_PROPERTY: pEC50

smiles_notation=O=C1CN(Cc2ccccc2)C(=S)N1c1ccccc1Cl system_under_test="Trypanosoma brucei brucei" measured_property=pEC50 qualifier=< experimental_value=4.70
smiles_notation=O=C1CN(Cc2ccccc2)C(=S)N1c1ccc(F)c(Cl)c1 system_under_test="Trypanosoma brucei brucei" measured_property=pEC50 qualifier=< experimental_value=5.00
smiles_notation=COc1ccc(N2C(=O)CN(Cc3ccc(C)cc3)C2=S)cc1Cl system_under_test="Trypanosoma brucei brucei" measured_property=pEC50 qualifier== experimental_value=5.81
smiles_notation=COc1ccc(CN2CC(=O)N(c3ccc(OC)c(Cl)c3)C2=S)cc1 system_under_test="Trypanosoma brucei brucei" measured_property=pEC50 qualifier=< experimental_value=4.70
smiles_notation=O=C1CN(Cc2ccc(F)cc2Cl)C(=S)N1c1ccc(N2CCCC2)c(Cl)c1 system_under_test="Trypanosoma brucei brucei" measured_property=pEC50 qualifier== experimental_value=8.05
smiles_notation=O=C1CN(Cc2ccccc2)C(=S)N1c1ccc(Cl)cc1 system_under_test="Trypanosoma brucei brucei" measured_property=pEC50 qualifier=< experimental_value=5.00
smiles_notation=COc1ccc(N2C(=O)CN(Cc3ccc(F)cc3)C2=S)cc1Cl system_under_test="Trypanosoma brucei brucei" measured_property=pEC50 qualifier== experimental_value=7.28
smiles_notation=COc1cc(N2C(=O)CN(Cc3ccc(F)cc3C(F)(F)F)C2=S)ccc1N(C)C system_under_test="Trypanosoma brucei brucei" measured_property=pEC50 qualifier== experimental_value=7.55
smiles_notation=CN(C)c1ccc(N2C(=O)CN(Cc3ccc(F)c(F)c3)C2=S)cc1Cl system_under_test="Trypanosoma brucei brucei" measured_property=pEC50 qualifier== experimental_value=7.89
smiles_notation=COc1ccc(N2C(=O)CN(Cc3ccccc3)C2=S)cc1 system_under_test="Trypanosoma brucei brucei" measured_property=pEC50 qualifier=< experimental_value=5.00
smiles_notation=COc1cc(N2C(=O)CN(Cc3ccccc3)C2=S)cc(OC)c1OC system_under_test="Trypanosoma brucei brucei" measured_property=pEC50 qualifier=< experimental_value=5.00
